Tested on: UACC-257 melanoma
procedure details: NCI-60 one-dose screen, 48 h
recorded conditions: 10 µM unless noted
About 83,000 compounds went through this panel and 20% of them were active in at least one assay; those are over-represented in the sample as a whole. The source made the active and inactive calls. Rule for the calls: active = growth percent below 10; inactive = the rest.
Hi! Could you answer with just one of these? active, inactive

Solved cases (3 shown):
CSCCC1NC(=O)C(C(C)=Nc2ccccc2)=C1O (stereo unspecified) :: inactive
CC(=O)OC1Oc2cc(C)c(C)cc2-c2oc(=O)c(-c3ccc(F)cc3)cc21 (stereo unspecified) :: inactive
NS(=O)(=O)c1ccc(N2N=C(c3ccc(Br)cc3)CC2c2cn(-c3ccccc3)nc2-c2ccc(Cl)cc2)cc1 (stereo unspecified) :: inactive

Query block: Check the results log: what was the call for CC1=C(C(=O)Nc2ccc(F)cc2)C(c2ccc(C)cc2)C2=C(CC(C)(C)CC2=O)N1 (stereo unspecified) ?
Result block: inactive

Query block: Check the results log: what was the call for Cc1ccc(NC(=O)Cn2nncc2CN2C(=O)CSC2=O)cc1C ?
Result block: inactive

Values were extracted from PubChem BioAssay (NCI).
